Experiment: Plasma clearance in rat
Format: ADME, organism-based
measurement-kind: clearance (mL/min/kg)
Give the value, in units of mL/min/kg, as a plain number.

Query block: Given the compound Cn1c(-c2ccccc2C(F)(F)F)nnc1C12CCC(c3nc(-c4ccc(F)cc4)no3)(CC1)CC2 , write its reported clearance.
Result block: 5.39

###

Assay: plasma clearance in dog
Assay type: ADME, organism-based, Canis lupus familiaris
measurement-kind: clearance

Query block: Given the compound Cn1c(-c2ccccc2C(F)(F)F)nnc1C12CCC(c3nc(-c4ccc(F)cc4)no3)(CC1)CC2 , write its reported clearance.
Result block: 3.51 mL/min/kg

###

Biological target: 11-beta-hydroxysteroid dehydrogenase type 2 (Homo sapiens, UniProt P80365)
Sequence (P80365 whole entry): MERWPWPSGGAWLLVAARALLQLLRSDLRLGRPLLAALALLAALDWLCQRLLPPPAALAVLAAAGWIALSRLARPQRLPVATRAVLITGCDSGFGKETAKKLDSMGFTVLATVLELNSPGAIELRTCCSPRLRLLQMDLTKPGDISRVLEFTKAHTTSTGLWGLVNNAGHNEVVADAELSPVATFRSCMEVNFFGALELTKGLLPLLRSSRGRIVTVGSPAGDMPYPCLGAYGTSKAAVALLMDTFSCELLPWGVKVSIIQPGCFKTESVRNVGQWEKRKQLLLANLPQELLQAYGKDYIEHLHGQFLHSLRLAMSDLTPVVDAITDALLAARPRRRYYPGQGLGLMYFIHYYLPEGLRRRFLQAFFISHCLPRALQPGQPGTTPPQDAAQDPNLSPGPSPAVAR
pIC50: −log10 of the molar value.
measurement-kind: pIC50

Query block: State pIC50 on 11-beta-hydroxysteroid dehydrogenase type 2 (Homo sapiens, UniProt P80365). Entry: Cc1noc(C23CCC(c4nnc5n4CCCCCC5)(CC2)CC3)n1
Result block: < 5.40

###

Assay: Oral bioavailability in mouse
Type: ADME, organism-based
Conditions: in vivo
measurement-kind: bioavailability (%)
Give the value, in units of %, as a plain number.

smiles-string: Cn1c(-c2ccccc2C(F)(F)F)nnc1C12CCC(c3nc(-c4ccc(F)cc4)no3)(CC1)CC2
bioavailability (%): 58
--
smiles-string: CCCCCC12CCC(c3nnc4n3CCCCCC4)(CC1)CC2
bioavailability (%): 6

Would you kindly look at the next entry?
Query block: Given the molecule CCCCCC12CCC(c3nnc(-c4ccccc4C(F)(F)F)n3C)(CC1)CC2 , write its reported bioavailability.
Result block: 21

###

Assay: Oral bioavailability in dog
Type: ADME, organism-based, Canis lupus familiaris
Conditions: in vivo
measurement-kind: bioavailability (%)
Give the value, in units of %, as a plain number.

Query block: Given the compound Cn1c(-c2ccccc2C(F)(F)F)nnc1C12CCC(c3nc(-c4ccc(F)cc4)no3)(CC1)CC2 , write its reported bioavailability.
Result block: 100

###

Molecular target: 11-beta-hydroxysteroid dehydrogenase 1 (Mus musculus)
Sequence (P50172 whole entry): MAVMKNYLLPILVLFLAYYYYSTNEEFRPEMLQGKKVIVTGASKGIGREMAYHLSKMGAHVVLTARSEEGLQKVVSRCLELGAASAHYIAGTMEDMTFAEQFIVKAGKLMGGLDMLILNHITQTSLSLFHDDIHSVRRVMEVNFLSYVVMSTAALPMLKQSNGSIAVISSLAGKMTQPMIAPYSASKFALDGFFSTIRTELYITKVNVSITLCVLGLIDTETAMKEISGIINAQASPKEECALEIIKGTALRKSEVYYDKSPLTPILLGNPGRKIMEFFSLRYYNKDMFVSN
Kindly apply the following: YES if IC50 is less than 2 nM, NO in every other case.

// known answers, use as guide
smiles-string: Cn1c(-c2ccccc2C(F)(F)F)nnc1C12CCC(c3nc(-c4ccc(F)cc4)no3)(CC1)CC2
class-label: YES
--
smiles-string: COc1cc(O)ccc1-c1nnc(C23CCC(c4nc(-c5ccc(F)cc5)no4)(CC2)CC3)n1C
class-label: NO
--
smiles-string: Cn1c(-c2ccccc2C(F)(F)F)nnc1C12CCC(c3nnc(-c4ccc(F)cc4)o3)(CC1)CC2
class-label: NO

Query block: Is it true that IC50 reported for Cc1noc(C23CCC(c4nnc5n4CCCCCC5)(CC2)CC3)n1 is less than 2 nM?
Result block: NO

Query block: Is it true that IC50 reported for Cn1c(-c2ccccc2Cl)nnc1C12CCC(c3nc(-c4ccc(F)cc4)no3)(CC1)CC2 is less than 2 nM?
Result block: NO

Query block: Is it true that IC50 reported for Cn1c(-c2ccccc2C(F)(F)F)nnc1C12CCC(c3nc(-c4ccc(F)cc4)c[nH]3)(CC1)CC2 is less than 2 nM?
Result block: NO

Query block: Is it true that IC50 reported for COC(=O)C12CCC(c3nnc4n3CCCCCC4)(CC1)CC2 is less than 2 nM?
Result block: NO

Query block: Is it true that IC50 reported for Cn1c(-c2ccccc2OC(F)F)nnc1C12CCC(c3nc(-c4ccc(F)cc4)no3)(CC1)CC2 is less than 2 nM?
Result block: NO

Query block: Is it true that IC50 reported for CCCCCC12CCC(c3nnc(-c4ccccc4C(F)(F)F)n3C)(CC1)CC2 is less than 2 nM?
Result block: NO

Query block: Is it true that IC50 reported for Cn1c(-c2ccccc2C(F)(F)F)nnc1C12CCC(c3noc(-c4ccc(F)cc4)n3)(CC1)CC2 is less than 2 nM?
Result block: YES
